ASSAY_NOTES: Compound was tested in vitro for antibacterial activity against Citrobacter sp 2404 strain.
Format: functional
OBSERVATION_TYPE: MIC (µg/mL)

| COMPOUND | OBSERVATION_TYPE | DISPLAY_UNIT | QUANTITATIVE_READOUT |
| --- | --- | --- | --- |
| C[C@H](NC(=O)[C@@H](N)CCCCC(=O)O)C(=O)O | MIC | µg/mL | 2 |
| C[C@H](N)C(=O)N[C@@H](C)C(=O)N[C@@H](CCCCC(=O)O)C(=O)O | MIC | µg/mL | 250 |
| CC(N)C(=O)NCCP(=O)(O)O (configuration not stated) | MIC | µg/mL | 25 |

I. C[C@H](N)C(=O)N[C@@H](CCCCC(=O)O)C(=O)O
II. O=C(O)CCCC[C@H](NC(=O)[C@@H]1CCCN1)C(=O)O
INPUT: Problem: Given the entries I and II , determine which has the lower reported MIC. Use the label to indicate which entry you chose.
OUTPUT: I
